- System: Vero E6 infected with SARS-CoV-2
- TEST_DESCRIPTION: morphology score (similarity to uninfected cells); higher = more like uninfected cells
- CONDITION_CONTEXT: 24 h
Please note: T applies when morphology score is 0.02 or greater, and F applies otherwise.

- COMPOUND: "O=c1nc2ccccc2c2n1CC(CN1CCN(c3ccccc3)CC1)N2 (configuration not stated) (10 µM)"
  CLASS_ASSIGNMENT: "T"
- COMPOUND: "Clc1ccc(C2(c3ccc(-c4cn[nH]c4)cc3)CCNCC2)cc1 (0.833333 µM)"
  CLASS_ASSIGNMENT: "T"
- COMPOUND: "COc1ccc(-c2cc(=O)c3c(OC)c(OC)c(OC)c(OC)c3o2)cc1 [tangeritin] (10 µM)"
  CLASS_ASSIGNMENT: "F"
- COMPOUND: "COc1ccc(-c2nc3cc(C4=NNC(=O)CC4C)ccc3[nH]2)cc1 (configuration not stated) [pimobendan] (10 µM)"
  CLASS_ASSIGNMENT: "T"
- COMPOUND: "O=[N+]([O-])c1cccc2cn[nH]c12 [7-nitroindazole] (10 µM)"
  CLASS_ASSIGNMENT: "T"

Pending compound:
## Input Does morphology score meet or surpass 0.02 for CC(=O)N[C@H]1[C@H]([C@H](O)[C@H](O)CO)OC(C(=O)O)=C[C@@H]1NC(=N)N [zanamivir] (10 µM) ?
## Output T
